Measured values drawn from the Human Domainome abundance scans (Beltran et al. 2025) for this set.

B1: Protein piccolo, residues 1058 to 1114; numbered along this chain, Q9Y6V0 (parent)
chain: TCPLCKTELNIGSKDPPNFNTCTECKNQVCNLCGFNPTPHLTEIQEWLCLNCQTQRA

Variants of: B1
Assay: abundance fitness (aPCA) (normalised: wild type 0, dead -1); higher = more abundant; growth selection in yeast, the domain comes from the species named
Conditions: Homo sapiens
Would you mind labelling by abundance fitness? At or over -0.1 is label 1, under is label 0.

- MUTANT_LABEL: "T1L"
  CATEGORY_LABEL: "label 1"
- MUTANT_LABEL: "Q53F"
  CATEGORY_LABEL: "label 0"
- MUTANT_LABEL: "C25Y"
  CATEGORY_LABEL: "label 0"
- MUTANT_LABEL: "L9N"
  CATEGORY_LABEL: "label 0"
- MUTANT_LABEL: "F35G"
  CATEGORY_LABEL: "label 1"
- MUTANT_LABEL: "L48C"
  CATEGORY_LABEL: "label 1"
- MUTANT_LABEL: "I44N"
  CATEGORY_LABEL: "label 0"
- MUTANT_LABEL: "N20R"
  CATEGORY_LABEL: "label 1"
- MUTANT_LABEL: "I44V"
  CATEGORY_LABEL: "label 1"
- MUTANT_LABEL: "N10V"
  CATEGORY_LABEL: "label 0"
- MUTANT_LABEL: "I44K"
  CATEGORY_LABEL: "label 1"
- MUTANT_LABEL: "N51K"
  CATEGORY_LABEL: "label 1"
- MUTANT_LABEL: "C52S"
  CATEGORY_LABEL: "label 0"
- MUTANT_LABEL: "E8L"
  CATEGORY_LABEL: "label 0"
- MUTANT_LABEL: "E43T"
  CATEGORY_LABEL: "label 1"
- MUTANT_LABEL: "P16Q"
  CATEGORY_LABEL: "label 1"
- MUTANT_LABEL: "C2M"
  CATEGORY_LABEL: "label 0"
- MUTANT_LABEL: "P39R"
  CATEGORY_LABEL: "label 1"
- MUTANT_LABEL: "L32C"
  CATEGORY_LABEL: "label 1"
- MUTANT_LABEL: "E43F"
  CATEGORY_LABEL: "label 0"
- MUTANT_LABEL: "C49F"
  CATEGORY_LABEL: "label 0"
- MUTANT_LABEL: "E46R"
  CATEGORY_LABEL: "label 1"
- MUTANT_LABEL: "C5I"
  CATEGORY_LABEL: "label 0"
- MUTANT_LABEL: "G34L"
  CATEGORY_LABEL: "label 1"
- MUTANT_LABEL: "L48K"
  CATEGORY_LABEL: "label 0"
- MUTANT_LABEL: "N10A"
  CATEGORY_LABEL: "label 1"
- MUTANT_LABEL: "P16A"
  CATEGORY_LABEL: "label 0"
- MUTANT_LABEL: "E8N"
  CATEGORY_LABEL: "label 0"
- MUTANT_LABEL: "L4P"
  CATEGORY_LABEL: "label 0"
- MUTANT_LABEL: "G12C"
  CATEGORY_LABEL: "label 1"
- MUTANT_LABEL: "F35R"
  CATEGORY_LABEL: "label 1"
- MUTANT_LABEL: "Q45T"
  CATEGORY_LABEL: "label 0"
- MUTANT_LABEL: "N27S"
  CATEGORY_LABEL: "label 1"
- MUTANT_LABEL: "E24F"
  CATEGORY_LABEL: "label 0"
- MUTANT_LABEL: "E8R"
  CATEGORY_LABEL: "label 0"
- MUTANT_LABEL: "L9F"
  CATEGORY_LABEL: "label 1"
- MUTANT_LABEL: "K6E"
  CATEGORY_LABEL: "label 1"
- MUTANT_LABEL: "H40W"
  CATEGORY_LABEL: "label 0"
- MUTANT_LABEL: "E46F"
  CATEGORY_LABEL: "label 0"
- MUTANT_LABEL: "N10S"
  CATEGORY_LABEL: "label 1"
- MUTANT_LABEL: "N10H"
  CATEGORY_LABEL: "label 0"
- MUTANT_LABEL: "P17N"
  CATEGORY_LABEL: "label 0"
- MUTANT_LABEL: "L4N"
  CATEGORY_LABEL: "label 1"
- MUTANT_LABEL: "T23C"
  CATEGORY_LABEL: "label 1"
